# experiment summary: Pharmacokinetics of CBP501, single agent study
# Format: in vivo, human
# reported conditions: human, in vivo, 12.73 mg/m2, single agent, 12.73 mg/m^2, Day 1, mean, N 3
Where a name gives a salt, the structure may show the parent alone. Square brackets hold non-standard residues; d marks the D form. Peptide text beside a SMILES is read from it. dPhe(F5) = N[C@H](Cc1c(F)c(F)c(F)c(F)c1F)C(=O)O; dBpa = N[C@H](Cc1ccc(C(=O)c2ccccc2)cc1)C(=O)O; dCha = N[C@H](CC1CCCCC1)C(=O)O
outcome measure: clearance (mL/min/kg)
Field format: number, assumed mL/min/kg, no unit text.

Query: Given the molecule N=C(N)NCCC[C@@H](NC(=O)[C@@H](CCCNC(=N)N)NC(=O)[C@@H](CCC(N)=O)NC(=O)[C@@H](CCCNC(=N)N)NC(=O)[C@@H](CCCNC(=N)N)NC(=O)[C@@H](CCCNC(=N)N)NC(=O)[C@@H](CC1CCCCC1)NC(=O)[C@@H](Cc1c(F)c(F)c(F)c(F)c1F)NC(=O)[C@@H](CO)NC(=O)[C@@H](Cc1c[nH]c2ccccc12)NC(=O)[C@@H](CO)NC(=O)[C@H](N)Cc1ccc(C(=O)c2ccccc2)cc1)C(=O)O [CBP501, acetate salt] (H-[dBpa][dS][dW][dS][dPhe(F5)][dCha][dR][dR][dR][dQ][dR][dR]-OH) , what is its reported clearance?
Result: 0.983

---

# experiment summary: Pharmacokinetics of CBP501, single agent study
# Assay type: in vivo, human
# reported conditions: human, in vivo, 9.57 mg/m2, single agent, 9.57 mg/m^2, Day 1, mean, N 3
Where a name gives a salt, the structure may show the parent alone. Square brackets hold non-standard residues; d marks the D form. Peptide text beside a SMILES is read from it. dPhe(F5) = N[C@H](Cc1c(F)c(F)c(F)c(F)c1F)C(=O)O; dBpa = N[C@H](Cc1ccc(C(=O)c2ccccc2)cc1)C(=O)O; dCha = N[C@H](CC1CCCCC1)C(=O)O
outcome measure: half-life (h)
Field format: number, assumed h, no unit text.

Query: Given the molecule N=C(N)NCCC[C@@H](NC(=O)[C@@H](CCCNC(=N)N)NC(=O)[C@@H](CCC(N)=O)NC(=O)[C@@H](CCCNC(=N)N)NC(=O)[C@@H](CCCNC(=N)N)NC(=O)[C@@H](CCCNC(=N)N)NC(=O)[C@@H](CC1CCCCC1)NC(=O)[C@@H](Cc1c(F)c(F)c(F)c(F)c1F)NC(=O)[C@@H](CO)NC(=O)[C@@H](Cc1c[nH]c2ccccc12)NC(=O)[C@@H](CO)NC(=O)[C@H](N)Cc1ccc(C(=O)c2ccccc2)cc1)C(=O)O [CBP501, acetate salt] (H-[dBpa][dS][dW][dS][dPhe(F5)][dCha][dR][dR][dR][dQ][dR][dR]-OH) , what is its reported half-life?
Result: 2.5

---

# experiment summary: Pharmacokinetics of CBP501, single agent study
# Format: in vivo, human
# reported conditions: human, in vivo, 9.57 mg/m2, single agent, 9.57 mg/m^2, Day 1, mean, N 3
# Description: PK was examined in cycle (cy) 1. MTD is the level below that where 2 of 3-6 patients (pts) have DLT during cy 1-2. In the single agent study, PK was examined in cycle 1. Samples were collected on Days 1 and 15 before the start of the infusion, then at various time points over 24 hr from the start of the infusion, as described below.
Structures can show the parent of a compound that is named as a salt. Square brackets hold non-standard residues; d marks the D form. Peptide text beside a SMILES is read from it. dPhe(F5) = N[C@H](Cc1c(F)c(F)c(F)c(F)c1F)C(=O)O; dBpa = N[C@H](Cc1ccc(C(=O)c2ccccc2)cc1)C(=O)O; dCha = N[C@H](CC1CCCCC1)C(=O)O
outcome measure: clearance (mL/min/kg)
Field format: number, assumed mL/min/kg, no unit text.

Query: Given the compound N=C(N)NCCC[C@@H](NC(=O)[C@@H](CCCNC(=N)N)NC(=O)[C@@H](CCC(N)=O)NC(=O)[C@@H](CCCNC(=N)N)NC(=O)[C@@H](CCCNC(=N)N)NC(=O)[C@@H](CCCNC(=N)N)NC(=O)[C@@H](CC1CCCCC1)NC(=O)[C@@H](Cc1c(F)c(F)c(F)c(F)c1F)NC(=O)[C@@H](CO)NC(=O)[C@@H](Cc1c[nH]c2ccccc12)NC(=O)[C@@H](CO)NC(=O)[C@H](N)Cc1ccc(C(=O)c2ccccc2)cc1)C(=O)O [CBP501, acetate salt] (H-[dBpa][dS][dW][dS][dPhe(F5)][dCha][dR][dR][dR][dQ][dR][dR]-OH) , what is its reported clearance?
Result: 0.633

---

# experiment summary: Pharmacokinetics of CBP501, combination study
# Format: in vivo, human
# reported conditions: human, in vivo, combination with cisplatin, CBP501 7.2 mg/m^2, Day 1, mean, N 3
Structures can show the parent of a compound that is named as a salt. Square brackets hold non-standard residues; d marks the D form. Peptide text beside a SMILES is read from it. dPhe(F5) = N[C@H](Cc1c(F)c(F)c(F)c(F)c1F)C(=O)O; dBpa = N[C@H](Cc1ccc(C(=O)c2ccccc2)cc1)C(=O)O; dCha = N[C@H](CC1CCCCC1)C(=O)O
outcome measure: Cmax (ng/mL)
Field format: number, assumed ng/mL, no unit text.

Query: Given the molecule N=C(N)NCCC[C@@H](NC(=O)[C@@H](CCCNC(=N)N)NC(=O)[C@@H](CCC(N)=O)NC(=O)[C@@H](CCCNC(=N)N)NC(=O)[C@@H](CCCNC(=N)N)NC(=O)[C@@H](CCCNC(=N)N)NC(=O)[C@@H](CC1CCCCC1)NC(=O)[C@@H](Cc1c(F)c(F)c(F)c(F)c1F)NC(=O)[C@@H](CO)NC(=O)[C@@H](Cc1c[nH]c2ccccc12)NC(=O)[C@@H](CO)NC(=O)[C@H](N)Cc1ccc(C(=O)c2ccccc2)cc1)C(=O)O [CBP501, acetate salt] (H-[dBpa][dS][dW][dS][dPhe(F5)][dCha][dR][dR][dR][dQ][dR][dR]-OH) , what is its reported Cmax?
Result: 1770

---

# experiment summary: Pharmacokinetics of CBP501, single agent study
# Type: in vivo, human
# reported conditions: human, in vivo, 7.2 mg/m2, single agent, 7.2 mg/m^2, Day 15, mean, N 3
Counter-ions that a name gives are not always drawn. Square brackets hold non-standard residues; d marks the D form. Peptide text beside a SMILES is read from it. dPhe(F5) = N[C@H](Cc1c(F)c(F)c(F)c(F)c1F)C(=O)O; dBpa = N[C@H](Cc1ccc(C(=O)c2ccccc2)cc1)C(=O)O; dCha = N[C@H](CC1CCCCC1)C(=O)O
outcome measure: AUC(0-inf)

Query: Given the compound N=C(N)NCCC[C@@H](NC(=O)[C@@H](CCCNC(=N)N)NC(=O)[C@@H](CCC(N)=O)NC(=O)[C@@H](CCCNC(=N)N)NC(=O)[C@@H](CCCNC(=N)N)NC(=O)[C@@H](CCCNC(=N)N)NC(=O)[C@@H](CC1CCCCC1)NC(=O)[C@@H](Cc1c(F)c(F)c(F)c(F)c1F)NC(=O)[C@@H](CO)NC(=O)[C@@H](Cc1c[nH]c2ccccc12)NC(=O)[C@@H](CO)NC(=O)[C@H](N)Cc1ccc(C(=O)c2ccccc2)cc1)C(=O)O [CBP501, acetate salt] (H-[dBpa][dS][dW][dS][dPhe(F5)][dCha][dR][dR][dR][dQ][dR][dR]-OH) , what is its reported AUC(0-inf)?
Result: 3660 ng·h/mL

---

# experiment summary: Pharmacokinetics of CBP501, combination study
# Type: in vivo, human
# reported conditions: human, in vivo, combination with cisplatin, CBP501 16.2 mg/m^2, Day 1, mean, N 3
Where a name gives a salt, the structure may show the parent alone. Square brackets hold non-standard residues; d marks the D form. Peptide text beside a SMILES is read from it. dPhe(F5) = N[C@H](Cc1c(F)c(F)c(F)c(F)c1F)C(=O)O; dBpa = N[C@H](Cc1ccc(C(=O)c2ccccc2)cc1)C(=O)O; dCha = N[C@H](CC1CCCCC1)C(=O)O
outcome measure: Cmax (ng/mL)
Field format: number, assumed ng/mL, no unit text.

Query: Given the compound N=C(N)NCCC[C@@H](NC(=O)[C@@H](CCCNC(=N)N)NC(=O)[C@@H](CCC(N)=O)NC(=O)[C@@H](CCCNC(=N)N)NC(=O)[C@@H](CCCNC(=N)N)NC(=O)[C@@H](CCCNC(=N)N)NC(=O)[C@@H](CC1CCCCC1)NC(=O)[C@@H](Cc1c(F)c(F)c(F)c(F)c1F)NC(=O)[C@@H](CO)NC(=O)[C@@H](Cc1c[nH]c2ccccc12)NC(=O)[C@@H](CO)NC(=O)[C@H](N)Cc1ccc(C(=O)c2ccccc2)cc1)C(=O)O [CBP501, acetate salt] (H-[dBpa][dS][dW][dS][dPhe(F5)][dCha][dR][dR][dR][dQ][dR][dR]-OH) , what is its reported Cmax?
Result: 3490
